These measurements were taken from paper PMC12416549.

# STUDY_TARGET: T1, TNFR1 (Homo sapiens, UniProt P19438)
# T1 chain: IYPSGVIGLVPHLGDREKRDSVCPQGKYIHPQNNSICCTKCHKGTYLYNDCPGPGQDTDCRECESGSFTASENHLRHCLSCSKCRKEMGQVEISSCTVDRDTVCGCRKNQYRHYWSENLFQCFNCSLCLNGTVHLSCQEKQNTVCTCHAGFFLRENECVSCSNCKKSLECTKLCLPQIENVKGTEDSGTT
# METHOD_NOTES: yeast display SC50
Entries and their apparent Kd (screen) values follow.
State the answer as a number, implicitly in nM.

Use these answered entries as a reference point.
{"BINDER": "E46D (designed binder) MTLQELLREEALRRAEAEAFRYALELLAEKFPEQKEYLLDLAEEIDSQIRSLSGVDVEDVRKFLDKEWAWVKELLAEHPAELAEVEAARAARLAELRAEVEAKVAA", "apparent Kd (screen) / nM": 0.539}
{"BINDER": "H78R (designed binder) MTLQELLREEALRRAEAEAFRYALELLAEKFPEQKEYLLDLAEEIESQIRSLSGVDVEDVRKFLDKEWAWVKELLAERPAELAEVEAARAARLAELRAEVEAKVAA", "apparent Kd (screen) / nM": 0.49}
{"BINDER": "M1H (designed binder) HTLQELLREEALRRAEAEAFRYALELLAEKFPEQKEYLLDLAEEIESQIRSLSGVDVEDVRKFLDKEWAWVKELLAEHPAELAEVEAARAARLAELRAEVEAKVAA", "apparent Kd (screen) / nM": 0.539}

Shifting focus to the binder that follows.
Query :: I would be grateful if you could share the reported apparent Kd (screen) for A105G (designed binder) MTLQELLREEALRRAEAEAFRYALELLAEKFPEQKEYLLDLAEEIESQIRSLSGVDVEDVRKFLDKEWAWVKELLAEHPAELAEVEAARAARLAELRAEVEAKVGA .
Result :: 0.869
